B1: PhoQ; a variant is named by its letters at X, in order, P23837 (parent)
chain: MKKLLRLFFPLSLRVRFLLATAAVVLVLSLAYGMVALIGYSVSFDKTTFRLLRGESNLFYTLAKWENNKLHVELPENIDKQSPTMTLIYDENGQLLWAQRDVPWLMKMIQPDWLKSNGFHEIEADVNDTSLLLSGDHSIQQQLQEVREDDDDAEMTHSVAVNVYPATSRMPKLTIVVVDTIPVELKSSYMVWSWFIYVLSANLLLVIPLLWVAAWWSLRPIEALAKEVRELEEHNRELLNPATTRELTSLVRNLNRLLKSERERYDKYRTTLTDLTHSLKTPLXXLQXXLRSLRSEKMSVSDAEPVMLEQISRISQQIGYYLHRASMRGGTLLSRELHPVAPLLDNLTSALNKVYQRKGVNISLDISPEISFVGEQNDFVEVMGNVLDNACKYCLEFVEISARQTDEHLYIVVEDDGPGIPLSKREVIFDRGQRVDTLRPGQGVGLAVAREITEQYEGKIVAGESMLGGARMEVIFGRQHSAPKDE

Variants of: B1
test: enrichment ratio after two sorts for PhoP signalling (ratio (wild type AVST 3.29)); higher = more functional
test-context: with PhoP (E. coli)
Whole data set: some 140,000 sequences, median “enrichment ratio after two sorts for PhoP signalling” near 0, cut for the highest 2% near 11. This is one part of a sample in which the highest values are shown more often than they occur.
Hi there, I'd appreciate the recorded enrichment ratio for every entry that follows.
Output: the number by itself.

Incoming: Any idea what enrichment ratio was measured for `AVCS` ?
Outgoing: 8.99

Incoming: Any idea what enrichment ratio was measured for `SVAE` ?
Outgoing: 13.4

Incoming: Any idea what enrichment ratio was measured for `TCMI` ?
Outgoing: 15

Incoming: Any idea what enrichment ratio was measured for `SVSR` ?
Outgoing: 6.38

Incoming: Any idea what enrichment ratio was measured for `MALL` ?
Outgoing: 16.2

Incoming: Any idea what enrichment ratio was measured for `TCMA` ?
Outgoing: 15.5

Incoming: Any idea what enrichment ratio was measured for `SVMR` ?
Outgoing: 12.6

Incoming: Any idea what enrichment ratio was measured for `MMLL` ?
Outgoing: 1.58

Incoming: Any idea what enrichment ratio was measured for `FALL` ?
Outgoing: 16.3
